- tested target: T1, PUF4 RNA-binding domain (Saccharomyces cerevisiae, UniProt P25339 537-888)
- T1 sequence: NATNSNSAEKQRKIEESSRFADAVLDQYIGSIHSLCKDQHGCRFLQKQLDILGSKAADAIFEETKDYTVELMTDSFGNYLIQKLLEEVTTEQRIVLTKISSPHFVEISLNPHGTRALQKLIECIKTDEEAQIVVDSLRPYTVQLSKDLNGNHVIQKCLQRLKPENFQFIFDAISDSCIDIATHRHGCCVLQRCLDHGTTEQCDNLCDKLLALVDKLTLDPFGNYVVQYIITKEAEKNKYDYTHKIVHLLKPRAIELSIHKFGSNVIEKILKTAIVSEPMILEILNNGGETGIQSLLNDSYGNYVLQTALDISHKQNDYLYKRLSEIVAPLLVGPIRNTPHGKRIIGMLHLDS
- experiment notes: Mg; RNA-MaP; 20 mM Na-HEPES pH 7.4, 30 mM KOAc, 0.75 mM MgCl2, 0.1% Tween-20, 5% glycerol, 0.1 mg/mL BSA, 2 mM DTT; 25 C; 0.0125-409.6 nM protein
- measurement parameters: tags: N-His6-TEV cleaved; C-SNAP kept, Cy3B-labelled; label: tethered on chip by stalled RNA polymerase
We begin with a simple list: items and their reported pKd.
Just the number, please; pKd means minus log10 of the concentration in mol/L.

Before answering, review these 5 worked examples.
UCUCUUUGUAAACAUUCUCUU (ssRNA) [Ic_S1_P4E.1_K4.1_C4.1_H4.1_A4.1_[T5A]_[T7C]_F4.1_[T8A]_[A9T]_T4.1]    6.78
Ic_S2_P3E.1_K3.1_C3.1_H3.1_A3.1_[T5A]_[A6T]_F3.1_[T7A]_[A8G]_T3.1 (ssRNA) RNA: UUUGAUUAAUAUGAUAUCGUUCUUUCUUGUAAUAGUUCUUUCUCGAUAUCAUAUUAAUCUUU    5.81
Id_i_S2_P3E.7_K3.3_C3.3_[T-3C]_[C-2T]_[T-1A]_H3.3_A3.1_F3.1_T3.2 (ssRNA) RNA: UUUGAUUAAUAUGAUAUCGUUCUUUCUCUAACACUAUAUAUUCUUUCUCGAUAUCAUAUUAAUCUUU    6.67
ACAAACCUUAUAUAUACCACAAAC (ssRNA) [Id_ii_S3_P3E.3_K3.2_C3.2_H3.2_A3.1_F3.1_T3.2_[T9C]_[A10C]]    6.07
UCUCUUUGUAAAUAUCUCUU (ssRNA) [Ic_S1_P3E.1_K3.1_C3.1_H3.1_A3.1_[T5A]_F3.1_T3.1]    7.55

// moving on: another record for pKd
Enquiry: Could you tell me which pKd is on file for Ic_S4_P4E.1_K4.1_C4.1_H4.1_A4.1_[A6G]_F4.1_[T8A]_[A9G]_T4.1 (ssRNA) RNA: UUUGACAACUGAUCGUUCUUUCUUGUAUGUAGUUCUUUCUCGAUCAGUUGUCUUU ?
Return: 6.73
